Test system: GCIY;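 also: growth inhibition of the human GCIY cell line, read out by a cell viability assay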
PROTOCOL_SUMMARY: cells
Assay type: functional, cell-based
REPORTED_CONDITIONS: Homo sapiens
Description: SANGER: Inhibition of human GCIY cell growth in a cell viability assay.
Readings of pIC50 for the listed molecules
Keep it numeric: pIC50 is minus log10 of the concentration in mol/L.

MOL	TARGET_OR_TEST_SYSTEM	pIC50
C/C=C(/C)C(=O)O[C@H]1C(C)=C2[C@H]([C@@H]1OC(=O)CCCCCCC)[C@@](C)(OC(C)=O)C[C@H](OC(=O)CCC)[C@@]1(O)[C@H]2OC(=O)[C@@]1(C)O	GCIY	7.27

Value lookup for pIC50; key = `CC[C@@]1(O)C(=O)OCc2c1cc1n(c2=O)Cc2cc3ccccc3nc2-1`
7.18

---

System: NCI-H524;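 also: growth inhibition of human NCI-H524 cells, read out through a cell viability assay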
PROTOCOL_SUMMARY: cells
Type: functional, cell-based
REPORTED_CONDITIONS: Homo sapiens
Description: SANGER: Inhibition of human NCI-H524 cell growth in a cell viability assay.
METRIC: pIC50
When answering, recall that pIC50 equals minus log10 of the concentration in mol/L, and write that number alone.

Reported pIC50, molecule `C/C=C(/C)C(=O)O[C@H]1C(C)=C2[C@H]([C@@H]1OC(=O)CCCCCCC)[C@@](C)(OC(C)=O)C[C@H](OC(=O)CCC)[C@@]1(O)[C@H]2OC(=O)[C@@]1(C)O` : ____
7.15

---

System: NCI-H69;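 also: growth inhibition of the cell line, read out with a cell viability assay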
PROTOCOL_SUMMARY: cells
Format: functional, cell-based
REPORTED_CONDITIONS: Homo sapiens
Description: SANGER: Inhibition of human NCI-H69 cell growth in a cell viability assay.
pIC50: −log10 of the molar value.
METRIC: pIC50

MOL	MEASURED_VALUE
COc1cc(Nc2c(C#N)cnc3cc(OCCCN4CCN(C)CC4)c(OC)cc23)c(Cl)cc1Cl	< 5.70
Fc1cc(-c2cc[nH]/c(=N/c3ccc(-n4cnc(N5CCOCC5)n4)cc3)n2)cc(N2CCOCC2)c1	5.93

Shifting focus to the compound that follows.
Entry `CC[C@]1(O)C[C@@H]2CN(CCc3c([nH]c4ccccc34)[C@@](C(=O)OC)(c3cc4c(cc3OC)N(C)[C@H]3[C@@](O)(C(=O)OC)[C@H](OC(C)=O)[C@]5(CC)C=CCN6CC[C@]43[C@@H]65)C2)C1` : reported pIC50 = ?
< 7.00

---

System: 5637
PROTOCOL_SUMMARY: cells
Assay type: functional, cell-based
REPORTED_CONDITIONS: Homo sapiens
Description: SANGER: Inhibition of human 5637 cell growth in a cell viability assay.
pIC50: −log10 of the molar value.
Here the recorded pIC50 is given for each entry.

In the examples that follow, each entry is paired with its recorded pIC50.
MOL	MEASURED_VALUE
CC(=O)c1c(C)c2cnc(Nc3ccc(N4CCNCC4)cn3)nc2n(C2CCCC2)c1=O	< 5.40
CCCS(=O)(=O)Nc1ccc(F)c(C(=O)c2c[nH]c3ncc(Cl)cc23)c1F	< 5.00

Which pIC50 is listed for `O=c1cc(N2CCOCC2)oc2c(-c3cccc4c3sc3ccccc34)cccc12` ?
< 5.70

How about `Cn1cc(/C=C2\C(=O)Nc3cccnc32)c2ccccc21` ?
< 5.70

# iterate: `O=C(CCCCCCC(=O)Nc1ccccc1)NO`
5.63

---

Test system: KGN
PROTOCOL_SUMMARY: cells
Assay type: functional, cell-based
REPORTED_CONDITIONS: Homo sapiens
Description: SANGER: Inhibition of human KGN cell growth in a cell viability assay.
Consider the following compounds and their measured IC50 readings.
Answer with a number only, understood to be in nM.

A selection of reference data follows.
COMPOUND	UNIT_TAG	IC50
CC(=O)c1c(C)c2cnc(Nc3ccc(N4CCNCC4)cn3)nc2n(C2CCCC2)c1=O	nM	2820
NC(=O)c1ncn([C@@H]2O[C@H](COP(=O)(O)O)[C@@H](O)[C@H]2O)c1N	nM	630000
CCn1c(-c2nonc2N)nc2cnc(Oc3cccc(NC(=O)c4ccc(OCCN5CCOCC5)cc4)c3)cc21 [GSK-269962A]	nM	567

Any idea what IC50 was measured for `Cc1nc(Nc2ncc(C(=O)Nc3c(C)cccc3Cl)s2)cc(N2CCN(CCO)CC2)n1` ?
19.4

---

Measured pIC50 values are reported for all entries that follow.
Tested on: HCC1937;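 also: growth inhibition measured with a cell viability read-out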
PROTOCOL_SUMMARY: cells
Type: functional, cell-based
REPORTED_CONDITIONS: Homo sapiens
Description: SANGER: Inhibition of human HCC1937 cell growth in a cell viability assay.
pIC50: −log10 of the molar value.

Examples with their reported pIC50 follow.
COMPOUND	pIC50
O=c1[nH]c2ccccc2n1C1CCN(Cc2ccc(-c3nc4cc5[nH]cnc5cc4nc3-c3ccccc3)cc2)CC1	< 5.59
C[C@]12O[C@H](C[C@]1(O)CO)n1c3ccccc3c3c4c(c5c6ccccc6n2c5c31)CNC4=O [LESTAURTINIB]	< 5.70
C[C@]1(c2nc3c(C(N)=O)cccc3[nH]2)CCCN1 [VELIPARIB]	< 5.30

Can you share its pIC50? I mean this compound: Cn1c(=O)n(-c2ccc(C(C)(C)C#N)cc2)c2c3cc(-c4cnc5ccccc5c4)ccc3ncc21 [DACTOLISIB]
6.73

---

Test system: AGS;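 also: growth inhibition of AGS cells, determined with a cell viability assay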
PROTOCOL_SUMMARY: cells
Type: functional, cell-based
REPORTED_CONDITIONS: Homo sapiens
Description: SANGER: Inhibition of human AGS cell growth in a cell viability assay.
Define the label as True when IC50 is strictly less than 0.05 µM and as False in all remaining cases.

MOLECULE	TARGET_OR_TEST_SYSTEM	LABEL
CCNC(=O)c1noc(-c2cc(C(C)C)c(O)cc2O)c1-c1ccc(CN2CCOCC2)cc1 [LUMINESPIB]	AGS	True
N#C/C(=C1/Nc2ccccc2S1)c1ccnc(NCCc2cccnc2)n1	AGS	False
CNC(=O)c1ccccc1Sc1ccc2c(/C=C/c3ccccn3)n[nH]c2c1 [AXITINIB]	AGS	False
CC[C@@]1(O)C(=O)OCc2c1cc1n(c2=O)Cc2cc3ccccc3nc2-1 [CAMPTOTHECIN]	AGS	True

Say whether its IC50 is strictly beneath 0.05 µM. Entry: `C/C(O)=C(\C#N)C(=O)Nc1cc(Br)ccc1Br`
False

Try this molecule next: C/C=C(/C)C(=O)O[C@H]1C(C)=C2[C@H]([C@@H]1OC(=O)CCCCCCC)[C@@](C)(OC(C)=O)C[C@H](OC(=O)CCC)[C@@]1(O)[C@H]2OC(=O)[C@@]1(C)O [THAPSIGARGIN]
True

---

System: HCC70;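 also: cell viability assay measuring how strongly the compound suppresses proliferation of HCC70 cells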
PROTOCOL_SUMMARY: cells
Assay type: functional, cell-based
REPORTED_CONDITIONS: Homo sapiens
Description: SANGER: Inhibition of human HCC70 cell growth in a cell viability assay.
METRIC: IC50 (µM)
Give the quantity in µM, number only.

Use these answered entries as a reference point.
COMPOUND	UNIT_TAG	MEASURED_VALUE
Cn1c(=O)n(-c2ccc(C(C)(C)C#N)cc2)c2c3cc(-c4cnc5ccccc5c4)ccc3ncc21 [DACTOLISIB]	µM	0.409
NC(=O)c1ncn([C@@H]2O[C@H](COP(=O)(O)O)[C@@H](O)[C@H]2O)c1N	µM	1270
O=c1[nH]c2ccccc2n1C1CCN(Cc2ccc(-c3nc4cc5[nH]cnc5cc4nc3-c3ccccc3)cc2)CC1	µM	0.751

Here is the next item to consider.
Value lookup for IC50; key = CCNC(=O)c1noc(-c2cc(C(C)C)c(O)cc2O)c1-c1ccc(CN2CCOCC2)cc1 [LUMINESPIB]
0.0545

---

Tested on: KP-N-RT-BM-1
PROTOCOL_SUMMARY: SANGER: Inhibition of human KP-N-RT-BM-1 cell growth in a cell viability assay.
Type: functional, cell-based
pIC50: −log10 of the molar value.
METRIC: pIC50

Return pIC50 measured with KP-N-RT-BM-1 given this compound: Cc1[nH]c(/C=C2\C(=O)Nc3ccc(S(=O)(=O)Cc4c(Cl)cccc4Cl)cc32)c(C)c1C(=O)N1CCC[C@@H]1CN1CCCC1 [PHA-665752]
< 5.70

---

Tested on: S-117
PROTOCOL_SUMMARY: cells
Assay type: functional, cell-based
REPORTED_CONDITIONS: Homo sapiens
Description: SANGER: Inhibition of human S-117 cell growth in a cell viability assay.
METRIC: IC50

Data request, read-out IC50, for `CC(=O)c1c(C)c2cnc(Nc3ccc(N4CCNCC4)cn3)nc2n(C2CCCC2)c1=O`
> 4 µM

---

Tested on: BT-474
PROTOCOL_SUMMARY: cells
Assay type: functional, cell-based
REPORTED_CONDITIONS: Homo sapiens
Description: SANGER: Inhibition of human BT-474 cell growth in a cell viability assay.
METRIC: pIC50
A value of pIC50 is the negative decimal logarithm of a concentration given in moles per litre.

Observe how each entry below is paired with its result.
MOL	METRIC	MEASURED_VALUE
Cn1c(=O)n(-c2ccc(C(C)(C)C#N)cc2)c2c3cc(-c4cnc5ccccc5c4)ccc3ncc21	pIC50	6.63
Cc1n[nH]c2ccc(-c3cncc(OC[C@@H](N)Cc4c[nH]c5ccccc45)c3)cc12	pIC50	6.23

Now take the following compound into account.
What value of pIC50 has been recorded for this entry: `C/C=C(/C)C(=O)O[C@H]1C(C)=C2[C@H]([C@@H]1OC(=O)CCCCCCC)[C@@](C)(OC(C)=O)C[C@H](OC(=O)CCC)[C@@]1(O)[C@H]2OC(=O)[C@@]1(C)O`
6.68

Numbers sourced from ChEMBL document CHEMBL1201861.
